Tested on: biotinyl-Met-oxazolone
experimental-protocol: self-aminoacylation, catalytic enhancement (BMO) (fold over background); higher = more active; k-Seq, kA / k0A0; sequences stand for … in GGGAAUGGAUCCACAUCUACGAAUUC…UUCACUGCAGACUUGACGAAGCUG
Variants at the floor of the assay were thinned out.
Note to self: class labels come from recorded self-aminoacylation, ranges listed here: I: < 2; II: ≥ 2 and < 6; III: ≥ 6

Reference set (3 entries):
- AUUCCCCUAGAUCAUCGGGUG [Fam2.2 aminoacylation ribozyme variant]: III
- AAGUUCGCUAAUAGUCGCAAG [Fam3.1 aminoacylation ribozyme variant]: I
- UAUUUUGCUAAUAGUCGCAAG [Fam3.1 aminoacylation ribozyme variant]: I

Q. State the band of AUUCACCUUGGUCAUCGAGUG [Fam2.2 aminoacylation ribozyme variant]
A. II

Q. Next up: UCACACUUCAAGAAAUCGGUC [Fam1B.1 aminoacylation ribozyme variant]
A. I

Q. Next up: GUUCACCAAGGUCAUCGGGUG [Fam2.2 aminoacylation ribozyme variant]
A. III

Q. Next up: AUUCCCCUGGUCAUCUAGUGA [Fam2.1 aminoacylation ribozyme variant]
A. III

Q. Next up: AUUACCCUGAUCAUCGAGUGG [Fam2.1 aminoacylation ribozyme variant]
A. II

Q. Next up: CUGCUUCAAACAAUCGGUCCG [Fam1A.1 aminoacylation ribozyme variant]
A. I

Values from the supplement of paper PMC9233669
